# credit: patent US20230312550A1

Molecular target: hFAP (M39-A757) (Homo sapiens (Human))
Test: hFAP binding assay (surface plasmon resonance)
Settings: SPR, 20° C., single cycle kinetics
endpoint label: hFAP Binding assay k(on)
Remember to put the unit after the number in your answer.

Check out these entries, answers already filled in.
compound	hFAP Binding assay k(on)
C[C@@H]1COC[C@@H](C)N1c1ccc2nccc(C(=O)NCC(=O)N3CSC[C@H]3C#N)c2c1 [Example 105]	890000 M⁻¹ s⁻¹
CC1(C)OCCN(c2ccc3nccc(C(=O)NCC(=O)N4CSC[C@H]4C#N)c3c2)C1=O [Example 16]	740000 M⁻¹ s⁻¹
CC1(C)CN(c2ccc3nccc(C(=O)NCC(=O)N4CSC[C@H]4C#N)c3c2)CCO1 [Example 88]	4200000 M⁻¹ s⁻¹

# per-item lookup of hFAP Binding assay k(on); items listed below
1. N#C[C@@H]1CSCN1C(=O)CNC(=O)c1ccnc2ccc(N3CCCCO3)cc12 [Example 1]
2. C[C@H]1CCN(c2ccc3nccc(C(=O)NCC(=O)N4CSC[C@H]4C#N)c3c2)C1 [Example 54]
3. C[C@H]1CCCN1c1ccc2nccc(C(=O)NCC(=O)N3CSC[C@H]3C#N)c2c1 [Example 65]
4. N#C[C@@H]1CSCN1C(=O)CNC(=O)c1ccnc2ccc(N3CCOc4ccccc43)cc12 [Example 6]
5. N#C[C@@H]1CSCN1C(=O)CNC(=O)c1ccnc2ccc(N3CCCCC3)cc12 [Example 32]

1: 730000 M⁻¹ s⁻¹; 2: 6200000 M⁻¹ s⁻¹; 3: 6700000 M⁻¹ s⁻¹; 4: 40000000000 M⁻¹ s⁻¹; 5: 1300000 M⁻¹ s⁻¹

====

Target: hFAP (M39-A757) (Homo sapiens (Human), UniProt Q12884)
Sequence (Q12884 39-757): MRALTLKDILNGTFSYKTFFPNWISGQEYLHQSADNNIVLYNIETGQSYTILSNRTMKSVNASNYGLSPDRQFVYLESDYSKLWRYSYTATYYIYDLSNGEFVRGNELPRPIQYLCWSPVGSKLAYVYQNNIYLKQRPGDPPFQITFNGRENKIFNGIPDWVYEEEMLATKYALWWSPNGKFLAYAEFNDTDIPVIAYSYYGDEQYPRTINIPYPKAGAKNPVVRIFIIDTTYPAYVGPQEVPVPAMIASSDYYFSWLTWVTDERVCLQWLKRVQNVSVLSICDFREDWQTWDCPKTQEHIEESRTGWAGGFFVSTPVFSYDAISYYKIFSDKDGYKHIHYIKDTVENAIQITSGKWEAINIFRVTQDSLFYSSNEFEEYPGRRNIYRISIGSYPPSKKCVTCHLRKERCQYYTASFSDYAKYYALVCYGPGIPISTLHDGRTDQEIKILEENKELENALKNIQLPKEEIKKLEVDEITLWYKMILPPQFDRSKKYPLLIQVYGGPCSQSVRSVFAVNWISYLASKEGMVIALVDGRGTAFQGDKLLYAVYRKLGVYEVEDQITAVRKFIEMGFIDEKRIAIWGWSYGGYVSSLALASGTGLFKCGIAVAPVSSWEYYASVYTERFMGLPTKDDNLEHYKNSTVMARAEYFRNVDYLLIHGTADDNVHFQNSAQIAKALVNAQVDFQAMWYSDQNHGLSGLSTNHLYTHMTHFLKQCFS
Assay: hFAP binding assay (surface plasmon resonance)
Settings: SPR, 20° C., single cycle kinetics
endpoint label: hFAP Binding assay k(on) (M⁻¹ s⁻¹)
Answers are plain numbers, in M⁻¹ s⁻¹.

compound	target desc	hFAP Binding assay k(on), M⁻¹ s⁻¹
N#C[C@@H]1CSCN1C(=O)CNC(=O)c1ccnc2ccc(N3CCCC[C@@H](F)C3)cc12 [Example 59]	hFAP (M39-A757) (Homo sapiens (Human), UniProt Q12884)	2600000
N#C[C@@H]1CSCN1C(=O)CNC(=O)c1ccnc2ccc(N3CCC[C@@H]3C3CC3)cc12 (single isomer, unassigned) [Example 199]	hFAP (M39-A757) (Homo sapiens (Human), UniProt Q12884)	2300000
N#C[C@@H]1CSCN1C(=O)CNC(=O)c1ccnc2ccc(-c3ccc(C(F)F)nc3)cc12 [Example 169]	hFAP (M39-A757) (Homo sapiens (Human), UniProt Q12884)	6200000
N#C[C@@H]1CSCN1C(=O)CNC(=O)c1ccnc2ccc(N3CC4(CCO4)C3)cc12 [Example 153]	hFAP (M39-A757) (Homo sapiens (Human), UniProt Q12884)	5300000
CS(=O)(=O)C[C@H]1CN(c2ccc3nccc(C(=O)NCC(=O)N4CSC[C@H]4C#N)c3c2)CCO1 [Example 92]	hFAP (M39-A757) (Homo sapiens (Human), UniProt Q12884)	2200000
CC1(CC(F)(F)F)CN(c2ccc3nccc(C(=O)NCC(=O)N4CSC[C@H]4C#N)c3c2)C1 [Example 131]	hFAP (M39-A757) (Homo sapiens (Human), UniProt Q12884)	1800000
CC1CC2(C1)CN(c1ccc3nccc(C(=O)NCC(=O)N4CSC[C@H]4C#N)c3c1)C2 [Example 149]	hFAP (M39-A757) (Homo sapiens (Human), UniProt Q12884)	4800000
N#C[C@@H]1CSCN1C(=O)CNC(=O)c1ccnc2ccc(-c3cccnc3)cc12 [Example 126]	hFAP (M39-A757) (Homo sapiens (Human), UniProt Q12884)	1800000

# per-item lookup of hFAP Binding assay k(on); items listed below
1. N#C[C@@H]1CSCN1C(=O)CNC(=O)c1ccnc2ccc(N3CCC4(CC3)COC4)cc12 [Example 229]
2. COC1(C)CCN(c2ccc3nccc(C(=O)NCC(=O)N4CSC[C@H]4C#N)c3c2)CC1 [Example 42]
3. N#C[C@@H]1CSCN1C(=O)CNC(=O)c1ccnc2ccc(N3C[C@H]4C[C@@H]3CO4)cc12 [Example 76]

1: 2400000; 2: 1800000; 3: 1000000

# per-item lookup of hFAP Binding assay k(on); items listed below
1. C[C@]1(F)CCN(c2ccc3nccc(C(=O)NCC(=O)N4CSC[C@H]4C#N)c3c2)C1 (mixture of isomers) [Example 198]
2. N#C[C@@H]1CSCN1C(=O)CNC(=O)c1ccnc2ccc(-n3ccc4c(F)cc(F)cc43)cc12 [Example 119]
3. N#C[C@@H]1CSCN1C(=O)CNC(=O)c1ccnc2ccc(-n3ccc(-c4ccccc4)c3)cc12 [Example 218]
4. CC1(C2CC2)CN(c2ccc3nccc(C(=O)NCC(=O)N4CSC[C@H]4C#N)c3c2)C1 [Example 134]

[2900000, 610000, 670000, 620000]

====

For each of the compounds below, state its hFAP Binding assay k(off).
Biological target: hFAP (M39-A757) (Homo sapiens (Human), UniProt Q12884)
Test: hFAP binding assay (surface plasmon resonance)
Conditions: SPR, 20° C., single cycle kinetics
One number for each entry, in s⁻¹.

compound	result
COCC1(C)CN(c2ccc3nccc(C(=O)NCC(=O)N4CSC[C@H]4C#N)c3c2)C1 [Example 29]	0.000061
N#C[C@@H]1CSCN1C(=O)CNC(=O)c1ccnc2ccc(N3C[C@@H]4CC[C@H]3C4)cc12 (mixture of isomers) [Example 210]	0.000098
CC1(C)CCN(c2ccc3nccc(C(=O)NCC(=O)N4CSC[C@H]4C#N)c3c2)C(=O)O1 [Example 112]	0.00014

# per-item lookup of hFAP Binding assay k(off); items listed below
1. CC1(C)CCCN(c2ccc3nccc(C(=O)NCC(=O)N4CSC[C@H]4C#N)c3c2)C1=O [Example 15]
2. Cc1cc2nccc(C(=O)NCC(=O)N3CSC[C@H]3C#N)c2cc1N1CCOCC1 [Example 10]
3. N#C[C@@H]1CSCN1C(=O)CNC(=O)c1ccnc2ccc(N3CC4(COC4)C3)cc12 [Example 166]
4. COC[C@H]1COCCN1c1ccc2nccc(C(=O)NCC(=O)N3CSC[C@H]3C#N)c2c1 [Example 89]
5. C[C@@H]1[C@@H](C)OCCN1c1ccc2nccc(C(=O)NCC(=O)N3CSC[C@H]3C#N)c2c1 [Example 83]
6. N#C[C@@H]1CSCN1C(=O)CNC(=O)c1ccnc2ccc(-n3ccc4c(F)cc(F)cc43)cc12 [Example 119]
7. N#C[C@@H]1CSCN1C(=O)CNC(=O)c1ccnc2ccc(N3CC[C@H](F)C3)cc12 [Example 51]

1: 0.000046; 2: 0.000056; 3: 0.000049; 4: 0.00015; 5: 0.000064; 6: 0.00031; 7: 0.00011

# per-item lookup of hFAP Binding assay k(off); items listed below
1. CC1CN(c2ccc3nccc(C(=O)NCC(=O)N4CSC[C@H]4C#N)c3c2)C1 [Example 25]
2. N#C[C@@H]1CSCN1C(=O)CNC(=O)c1ccnc2ccc(N3CCCC4(CC4)C3)cc12 [Example 46]
3. N#C[C@@H]1CSCN1C(=O)CNC(=O)c1ccnc2ccc(N3CCCCC3=O)cc12 [Example 14]
4. N#C[C@@H]1CSCN1C(=O)CNC(=O)c1ccnc2ccc(N3CCCCO3)cc12 [Example 1]
5. CC1(C(F)F)CN(c2ccc3nccc(C(=O)NCC(=O)N4CSC[C@H]4C#N)c3c2)C1 [Example 135]
6. CO[C@H]1CCN(c2ccc3nccc(C(=O)NCC(=O)N4CSC[C@H]4C#N)c3c2)C1 [Example 207]

0.00011
0.000062
0.000064
0.00014
0.000023
0.000053

====

Target: FAP (Homo sapiens (Human))
Sequence (Q12884 38-760): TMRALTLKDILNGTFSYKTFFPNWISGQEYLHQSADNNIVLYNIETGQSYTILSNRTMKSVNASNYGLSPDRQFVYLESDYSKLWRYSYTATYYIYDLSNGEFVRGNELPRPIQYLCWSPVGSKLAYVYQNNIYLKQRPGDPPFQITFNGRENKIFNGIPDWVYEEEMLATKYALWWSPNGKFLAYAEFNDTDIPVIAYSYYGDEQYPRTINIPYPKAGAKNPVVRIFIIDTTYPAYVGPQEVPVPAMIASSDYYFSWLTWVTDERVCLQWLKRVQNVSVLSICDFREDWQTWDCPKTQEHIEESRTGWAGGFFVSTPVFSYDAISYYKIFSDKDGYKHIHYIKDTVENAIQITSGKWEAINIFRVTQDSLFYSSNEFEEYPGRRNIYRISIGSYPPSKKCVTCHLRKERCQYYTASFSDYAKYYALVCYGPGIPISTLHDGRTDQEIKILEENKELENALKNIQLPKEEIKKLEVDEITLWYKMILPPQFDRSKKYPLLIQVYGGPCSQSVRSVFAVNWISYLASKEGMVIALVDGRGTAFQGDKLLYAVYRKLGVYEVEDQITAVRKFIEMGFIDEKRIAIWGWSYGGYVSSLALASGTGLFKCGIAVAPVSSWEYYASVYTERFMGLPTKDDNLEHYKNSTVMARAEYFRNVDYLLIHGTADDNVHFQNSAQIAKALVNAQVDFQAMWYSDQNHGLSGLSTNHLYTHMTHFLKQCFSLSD
Assay: hFAP inhibition assay
Type: biochemical
Conditions: hFAP […], Ala-Pro-AMC 20 μM; n = 1 or geometric mean n = 2-3
Lab note: compare IC50 with 0.3 nM, writing Condition met if less and Condition not met if equal or more.

Consider the worked cases shown below.
molecule	class assignment
C[C@H]1CCCN1c1ccc2nccc(C(=O)NCC(=O)N3CSC[C@H]3C#N)c2c1	Condition met
CC1(C)COC12CN(c1ccc3nccc(C(=O)NCC(=O)N4CSC[C@H]4C#N)c3c1)C2	Condition met
C[C@@H]1CN(c2ccc3nccc(C(=O)NCC(=O)N4CSC[C@H]4C#N)c3c2)CCCO1	Condition met
CO[C@@H]1CN(c2ccc3nccc(C(=O)NCC(=O)N4CSC[C@H]4C#N)c3c2)[C@H]1C	Condition met
N#C[C@@H]1CSCN1C(=O)CNC(=O)c1ccnc2ccc(N3C[C@H](F)[C@@H](F)C3)cc12	Condition met

is_below(IC50, 0.3 nM) for N#C[C@@H]1CSCN1C(=O)CNC(=O)c1ccnc2ccc(N3CC(CF)C3)cc12 ?
Condition met

is_below(IC50, 0.3 nM) for Cc1cccc(C2CN(c3ccc4nccc(C(=O)NCC(=O)N5CSC[C@H]5C#N)c4c3)C2)c1 ?
Condition met

is_below(IC50, 0.3 nM) for N#C[C@@H]1CSCN1C(=O)CNC(=O)c1ccnc2ccc(N3CC4(CCC4)C3)cc12 ?
Condition met

is_below(IC50, 0.3 nM) for C[C@H]1CCN(c2ccc3nccc(C(=O)NCC(=O)N4CSC[C@H]4C#N)c3c2)C1 ?
Condition met

is_below(IC50, 0.3 nM) for N#C[C@@H]1CSCN1C(=O)CNC(=O)c1ccnc2ccc(N3CCC[C@H]3C(F)(F)F)cc12 ?
Condition not met

is_below(IC50, 0.3 nM) for N#C[C@@H]1CSCN1C(=O)CNC(=O)c1ccnc2ccc(N3C[C@@H](F)[C@H](F)C3)cc12 ?
Condition met

is_below(IC50, 0.3 nM) for N#C[C@@H]1CSCN1C(=O)CNC(=O)c1ccnc2ccc(N3CCC(C(F)(F)F)CC3)cc12 ?
Condition met

is_below(IC50, 0.3 nM) for N#C[C@@H]1CSCN1C(=O)CNC(=O)c1ccnc2ccc(N3CC4CC4C3)cc12 (some centres unmarked) ?
Condition met

is_below(IC50, 0.3 nM) for N#C[C@@H]1CSCN1C(=O)CNC(=O)c1ccnc2ccc(N3CCC4(CC4)C3)cc12 ?
Condition met

is_below(IC50, 0.3 nM) for COc1ccc(-c2ccc3nccc(C(=O)NCC(=O)N4CSC[C@H]4C#N)c3c2)cn1 ?
Condition met
